systemTested: adrenergic receptor alpha2A (Homo sapiens)
Construct: expressed in transfected cells; host or cells: recombinant human cells (so in the source)
Sequence (P08913 whole entry): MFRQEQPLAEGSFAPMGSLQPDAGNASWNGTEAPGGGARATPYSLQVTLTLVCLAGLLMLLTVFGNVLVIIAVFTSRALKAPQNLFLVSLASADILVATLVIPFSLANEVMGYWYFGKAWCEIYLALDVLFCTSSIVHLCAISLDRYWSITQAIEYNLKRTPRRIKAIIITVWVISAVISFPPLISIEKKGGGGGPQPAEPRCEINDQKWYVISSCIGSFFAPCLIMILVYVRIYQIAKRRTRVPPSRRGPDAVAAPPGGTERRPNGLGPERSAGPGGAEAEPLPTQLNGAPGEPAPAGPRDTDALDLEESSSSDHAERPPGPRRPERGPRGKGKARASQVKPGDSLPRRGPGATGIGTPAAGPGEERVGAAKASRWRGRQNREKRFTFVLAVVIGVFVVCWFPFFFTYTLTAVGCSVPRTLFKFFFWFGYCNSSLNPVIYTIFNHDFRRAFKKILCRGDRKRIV
method: Inhibition constants (Ki) for adrenergic receptor alpha2A in recombinant cells
Assay type: binding
runConditions: read-out: pKi α2A (converted)
Ki for assorted molecules
Unit nM implied. Number only.

Example results:
{"recordSmiles": "O=C1OCCN1CCC1CCN(C[C@H]2COc3ccc(F)cc3O2)CC1", "obsValue": 8.71}
{"recordSmiles": "N#Cc1ccc2c(c1)O[C@@H](CN1CCC(CCN3CCOCC3=O)CC1)CO2", "obsValue": 57.5}
{"recordSmiles": "O=C1OCCN1CCC1CCN(C[C@H]2COc3c(Cl)cc(F)cc3O2)CC1", "obsValue": 7.08}

With those in mind, consider the next molecule.
Find the measured Ki of `O=C1COCCN1CCC1CCN(C[C@H]2COc3c(F)cc(F)cc3O2)CC1` with adrenergic receptor alpha2A (Homo sapiens) as test system.
4.9
